assay: Metabolic stability in human whole blood at 1000 dpm/pmol after 4 hrs at 37 degC; format: ADME, tissue-based; settings: read-out: Stability
Experimental Endpoint: remaining at 4 h (%)
Give bare numbers, in %.

Ask: Quick one: remaining at 4 h for C[C@@]1(F)[C@H](O)[C@@H](CO)O[C@H]1n1ccc(N)nc1=O ?
Reply: 100

* * *

experiment: Metabolic stability in rhesus monkey whole blood at 1000 dpm/pmol after 0.25 hrs at 37 degC; type: ADME, tissue-based, Macaca mulatta; conditions: read-out: Stability
Experimental Endpoint: remaining at 0.25 h (%)
Answers are plain numbers, in %.

Ask: Report remaining at 0.25 h for C[C@@]1(F)[C@H](O)[C@@H](CO)O[C@H]1n1ccc(N)nc1=O please.
Reply: 100

* * *

test: Apparent volume of distribution with respect to bioavailability in rhesus monkey at 33.3 mg/kg, po administered as single dose; format: ADME, organism-based, Macaca mulatta; conditions: in vivo, read-out: Vc/F
Experimental Endpoint: Vd/F (L/kg)
Numbers only, in L/kg.

Ask: I'd like to know its Vd/F. The compound in question is C[C@@]1(F)[C@H](O)[C@@H](CO)O[C@H]1n1ccc(N)nc1=O
Reply: 21.9

* * *

experiment: Metabolic stability in human whole blood at 1000 dpm/pmol after 48 hrs at 37 degC; format: ADME, tissue-based; details: read-out: Stability
Experimental Endpoint: remaining at 48 h (%)
Give bare numbers, in %.

Ask: Name the recorded remaining at 48 h for C[C@@]1(F)[C@H](O)[C@@H](CO)O[C@H]1n1ccc(N)nc1=O .
Reply: 83.7

* * *

experiment: Oral bioavailability in rhesus monkey at 33.3 mg/kg, po administered as single dose; format: ADME, organism-based, Macaca mulatta; conditions: in vivo
Experimental Endpoint: bioavailability (%)
Answers are plain numbers, in %.

Ask: Reported bioavailability, molecule C[C@@]1(F)[C@H](O)[C@@H](CO)O[C@H]1n1ccc(N)nc1=O : ____
Reply: 24

* * *

assay: Metabolic stability in human whole blood at 1000 dpm/pmol after 24 hrs at 37 degC; type: ADME, tissue-based; conditions: read-out: Stability
Experimental Endpoint: remaining at 24 h (%)
Numbers only, in %.

Ask: What value of remaining at 24 h has been recorded for this entry: C[C@@]1(F)[C@H](O)[C@@H](CO)O[C@H]1n1ccc(N)nc1=O
Reply: 95.1

* * *

assay: Metabolic stability in human whole blood at 1000 dpm/pmol after 0.5 hrs at 37 degC; type: ADME, tissue-based; settings: read-out: Stability
Experimental Endpoint: remaining at 0.5 h
Dear colleague, please send the value followed by its unit.

Ask: GET /values?readout=remaining at 0.5 h&item= C[C@@]1(F)[C@H](O)[C@@H](CO)O[C@H]1n1ccc(N)nc1=O
Reply: 100%

* * *

experiment: Clearance in rhesus monkey at 33.3 mg/kg, iv administered as single dose; details: in vivo
Experimental Endpoint: clearance (mL/min/kg)
One number for each entry, in mL/min/kg.

Ask: May I ask what clearance has been recorded for C[C@@]1(F)[C@H](O)[C@@H](CO)O[C@H]1n1ccc(N)nc1=O ?
Reply: 10

* * *

test: Metabolic stability in rhesus monkey whole blood at 1000 dpm/pmol after 2 hrs at 37 degC; assay type: ADME, tissue-based, Macaca mulatta; details: read-out: Stability
Experimental Endpoint: remaining at 2 h

Ask: Query (molecule): C[C@@]1(F)[C@H](O)[C@@H](CO)O[C@H]1n1ccc(N)nc1=O ; field requested: remaining at 2 h
Reply: 100%

* * *

experiment: Terminal half life in rhesus monkey at 33.3 mg/kg, po administered as single dose; assay type: ADME, organism-based, Macaca mulatta; set-up: dose 33.3 mg/kg, route oral; details: in vivo, read-out: beta t1/2 (converted)
Experimental Endpoint: half-life (h)
Answers are plain numbers, in h.

Ask: Give its half-life value. Item: C[C@@]1(F)[C@H](O)[C@@H](CO)O[C@H]1n1ccc(N)nc1=O
Reply: 5.64

* * *

assay: Metabolic stability in rhesus monkey whole blood at 1000 dpm/pmol after 0.5 hrs at 37 degC; type: ADME, tissue-based, Macaca mulatta; details: read-out: Stability
Experimental Endpoint: remaining at 0.5 h (%)
Numbers only, in %.

Ask: What does the record list as remaining at 0.5 h for C[C@@]1(F)[C@H](O)[C@@H](CO)O[C@H]1n1ccc(N)nc1=O ?
Reply: 100

* * *

experiment: AUC in rhesus monkey at 33.3 mg/kg, po administered as single dose; assay type: ADME, organism-based, Macaca mulatta; set-up: dose 33.3 mg/kg, route oral; conditions: plasma
Experimental Endpoint: AUC (µM·h)
Numbers only, in µM·h.

Ask: Need AUC of C[C@@]1(F)[C@H](O)[C@@H](CO)O[C@H]1n1ccc(N)nc1=O , thanks.
Reply: 44.1
